- System: SK-MES-1
- Procedure details: relative viability (nuclei count vs DMSO), 5 days (fraction); higher = more cells survive
- Test settings: first compound 2.53 µM
Measured quantity: relative viability
Write no unit; give the number alone.

Consider the worked cases shown below.
Molecule: O=c1[nH]c2ccccc2n1C1CCN(CCCC(c2ccc(F)cc2)c2ccc(F)cc2)CC1 [Pimozide] + Cc1nc(Nc2ncc(C(=O)Nc3c(C)cccc3Cl)s2)cc(N2CCN(CCO)CC2)n1 [Dasatinib] (partner 0.075 µM)
relative viability: 0.325
//
Molecule: O=c1[nH]c2ccccc2n1C1CCN(CCCC(c2ccc(F)cc2)c2ccc(F)cc2)CC1 [Pimozide] + Cc1nc(NC(=O)N2CCC[C@H]2C(N)=O)sc1-c1ccnc(C(C)(C)C(F)(F)F)c1 [Alpelisib] (partner 2 µM)
relative viability: 0.837
//
Molecule: O=c1[nH]c2ccccc2n1C1CCN(CCCC(c2ccc(F)cc2)c2ccc(F)cc2)CC1 [Pimozide] + CS(=O)(=O)CCNCc1ccc(-c2ccc3ncnc(Nc4ccc(OCc5cccc(F)c5)c(Cl)c4)c3c2)o1 [Lapatinib] (partner 2 µM)
relative viability: 0.491

Req: Item under review: Cc1cnc(-c2cnc(NCCNc3ccc(C#N)cn3)nc2-c2ccc(Cl)cc2Cl)[nH]1 + COc1cccc2cc(-c3nc([C@H]4CC[C@H](C(=O)O)CC4)n4ncnc(N)c34)[nH]c12 [OSI-027] (partner 0.5 µM) . Reported relative viability?
Resp: 0.777

====

relative viability for assorted molecules
- System: CAL-12T
- Procedure details: relative viability (nuclei count vs DMSO), 5 days (fraction); higher = more cells survive
- Test settings: first compound 0.002 µM
Write no unit; give the number alone.

Consider the worked cases shown below.
Molecule: CC(=O)O[C@@]12CO[C@@H]1C[C@H](O)[C@@]1(C)C(=O)[C@H](O)C3=C(C)[C@@H](OC(=O)[C@H](O)[C@@H](NC(=O)OC(C)(C)C)c4ccccc4)C[C@@](O)([C@@H](OC(=O)c4ccccc4)[C@H]21)C3(C)C [Docetaxel] + CS(=O)(=O)CCNCc1ccc(-c2ccc3ncnc(Nc4ccc(OCc5cccc(F)c5)c(Cl)c4)c3c2)o1 [Lapatinib] (partner 2 µM)
Target desc: CAL-12T
relative viability: 0.277

Molecule: CC(=O)O[C@@]12CO[C@@H]1C[C@H](O)[C@@]1(C)C(=O)[C@H](O)C3=C(C)[C@@H](OC(=O)[C@H](O)[C@@H](NC(=O)OC(C)(C)C)c4ccccc4)C[C@@](O)([C@@H](OC(=O)c4ccccc4)[C@H]21)C3(C)C [Docetaxel] + C[C@]1(O)C[C@@H](c2nc(-c3ccc4ccc(-c5ccccc5)nc4c3)c3c(N)nccn32)C1 [Linsitinib] (partner 1 µM)
Target desc: CAL-12T
relative viability: 0.303

Molecule: CC(=O)O[C@@]12CO[C@@H]1C[C@H](O)[C@@]1(C)C(=O)[C@H](O)C3=C(C)[C@@H](OC(=O)[C@H](O)[C@@H](NC(=O)OC(C)(C)C)c4ccccc4)C[C@@](O)([C@@H](OC(=O)c4ccccc4)[C@H]21)C3(C)C [Docetaxel] + C[C@@H](Oc1cc(-c2cnn(C3CCNCC3)c2)cnc1N)c1c(Cl)ccc(F)c1Cl [Crizotinib] (partner 1 µM)
Target desc: CAL-12T
relative viability: 0.146

Req: Item under review: CC(=O)O[C@@]12CO[C@@H]1C[C@H](O)[C@@]1(C)C(=O)[C@H](O)C3=C(C)[C@@H](OC(=O)[C@H](O)[C@@H](NC(=O)OC(C)(C)C)c4ccccc4)C[C@@](O)([C@@H](OC(=O)c4ccccc4)[C@H]21)C3(C)C [Docetaxel] + O=C(c1cc(Cc2n[nH]c(=O)c3ccccc23)ccc1F)N1CCN(C(=O)C2CC2)CC1 [Olaparib] (partner 8 µM) . Reported relative viability?
Resp: 0.253

Req: Item under review: CC(=O)O[C@@]12CO[C@@H]1C[C@H](O)[C@@]1(C)C(=O)[C@H](O)C3=C(C)[C@@H](OC(=O)[C@H](O)[C@@H](NC(=O)OC(C)(C)C)c4ccccc4)C[C@@](O)([C@@H](OC(=O)c4ccccc4)[C@H]21)C3(C)C [Docetaxel] + NC(=O)Nc1cc(-c2cccc(F)c2)sc1C(=O)N[C@H]1CCCNC1 [AZD7762] (partner 0.2 µM) . Reported relative viability?
Resp: 0.491

Recorded values, source the supplement of paper PMC10307832.
